src = patent US10246453B2

biological target: NaV1.5 (Homo sapiens (Human)); assay: Sodium Influx Assay (Flux), NaV1.5; conditions: read-out: Flux NaV1.5 IC50; Trex HEK293 cells, ANG2 dye; arithmetic mean
Sequence (Q14524 other isoform, or with tags, fused parts or gaps): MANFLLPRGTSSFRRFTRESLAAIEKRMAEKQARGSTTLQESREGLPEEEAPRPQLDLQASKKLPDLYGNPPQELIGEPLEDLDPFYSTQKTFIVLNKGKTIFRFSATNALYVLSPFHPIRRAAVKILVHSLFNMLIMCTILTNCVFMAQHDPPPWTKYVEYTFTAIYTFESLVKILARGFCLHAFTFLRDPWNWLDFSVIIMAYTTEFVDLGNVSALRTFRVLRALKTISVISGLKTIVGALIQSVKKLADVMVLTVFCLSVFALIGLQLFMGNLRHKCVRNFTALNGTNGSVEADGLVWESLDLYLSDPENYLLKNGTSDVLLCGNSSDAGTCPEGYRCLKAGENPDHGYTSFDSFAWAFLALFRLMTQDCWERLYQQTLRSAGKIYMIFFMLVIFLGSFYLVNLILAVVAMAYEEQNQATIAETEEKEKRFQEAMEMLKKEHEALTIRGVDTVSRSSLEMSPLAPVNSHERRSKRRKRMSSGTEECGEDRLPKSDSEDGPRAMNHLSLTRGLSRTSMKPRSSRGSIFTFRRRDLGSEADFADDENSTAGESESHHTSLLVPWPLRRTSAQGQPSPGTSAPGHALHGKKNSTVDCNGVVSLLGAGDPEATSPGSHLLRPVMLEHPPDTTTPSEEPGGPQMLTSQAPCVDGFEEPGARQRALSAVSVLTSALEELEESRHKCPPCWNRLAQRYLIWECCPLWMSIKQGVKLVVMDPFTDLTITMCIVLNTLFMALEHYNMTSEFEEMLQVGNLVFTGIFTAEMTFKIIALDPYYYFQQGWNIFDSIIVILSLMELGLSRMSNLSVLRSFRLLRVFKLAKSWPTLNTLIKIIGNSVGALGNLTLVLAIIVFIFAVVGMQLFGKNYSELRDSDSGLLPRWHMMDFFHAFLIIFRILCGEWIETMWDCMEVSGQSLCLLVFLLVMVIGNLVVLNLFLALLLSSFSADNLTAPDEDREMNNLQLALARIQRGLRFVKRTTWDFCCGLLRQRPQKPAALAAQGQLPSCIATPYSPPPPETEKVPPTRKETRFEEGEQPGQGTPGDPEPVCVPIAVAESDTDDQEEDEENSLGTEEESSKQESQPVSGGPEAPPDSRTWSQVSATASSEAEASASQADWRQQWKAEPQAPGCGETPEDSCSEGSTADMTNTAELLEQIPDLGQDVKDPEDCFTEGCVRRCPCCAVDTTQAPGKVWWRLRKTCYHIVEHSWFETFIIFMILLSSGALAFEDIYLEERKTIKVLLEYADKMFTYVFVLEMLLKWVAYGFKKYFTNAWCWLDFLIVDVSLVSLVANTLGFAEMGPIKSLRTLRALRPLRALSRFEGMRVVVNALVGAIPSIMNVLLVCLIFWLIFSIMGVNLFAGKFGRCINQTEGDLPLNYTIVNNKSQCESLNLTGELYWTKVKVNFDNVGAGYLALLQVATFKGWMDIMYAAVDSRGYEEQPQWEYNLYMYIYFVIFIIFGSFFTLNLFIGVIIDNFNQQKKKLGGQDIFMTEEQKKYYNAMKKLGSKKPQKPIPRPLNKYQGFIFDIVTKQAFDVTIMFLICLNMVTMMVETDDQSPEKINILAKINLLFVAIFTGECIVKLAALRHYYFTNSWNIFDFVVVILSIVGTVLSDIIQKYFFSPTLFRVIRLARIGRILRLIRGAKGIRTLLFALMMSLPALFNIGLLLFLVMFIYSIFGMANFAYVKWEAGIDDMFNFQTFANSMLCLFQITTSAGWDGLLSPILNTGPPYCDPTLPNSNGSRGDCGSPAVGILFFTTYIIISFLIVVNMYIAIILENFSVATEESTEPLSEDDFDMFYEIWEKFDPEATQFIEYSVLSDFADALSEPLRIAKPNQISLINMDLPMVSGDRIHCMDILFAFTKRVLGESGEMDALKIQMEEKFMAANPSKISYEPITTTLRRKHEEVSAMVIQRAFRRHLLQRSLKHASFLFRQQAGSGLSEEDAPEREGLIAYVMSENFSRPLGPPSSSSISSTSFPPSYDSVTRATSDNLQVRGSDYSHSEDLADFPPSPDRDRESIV
Where a name gives a salt, the structure may show the parent alone.
test.readout: IC50 (µM)
Write the number in µM without appending the unit.

Illustrative cases are given below, each with its answer.
• COc1ccccc1CN1CC[C@H](N(C)c2cc(F)c(S(=O)(=O)Nc3cscn3)cc2C)C1 [Example 119, formate] = 20.2
• CN(c1ccc(S(=O)(=O)Nc2cscn2)cc1C(F)(F)F)[C@H]1CCN(Cc2ccccc2)C1 [Example 294, formate] = 16.4
• COc1ccc(F)c(CN2CC[C@H](N(C)c3cc(F)c(S(=O)(=O)Nc4cscn4)cc3Cl)C2)c1 [Example 173, 2,2,2-trifluoroacetate] = 9.86
• C[C@H](c1ccccc1)N1CCC(Oc2cc(F)c(S(=O)(=O)Nc3nccs3)cc2Cl)CC1 [Example 56, 2,2,2-trifluoroacetate] = 10.1
• CC1(C)CN(Cc2cc(Cl)cc(Cl)c2)CCC1Oc1ccc(S(=O)(=O)Nc2ncns2)cc1Cl (centres unmarked) [Example 4, 2,2,2-trifluoroacetate] = 11

Challenge: Suppose we examine the compound Cc1cc(S(=O)(=O)Nc2cscn2)c(F)cc1N(C)[C@H]1CCN(Cc2ccc(C(F)(F)F)o2)C1 [Example 142] ; what IC50 value has been reported?
Response given: 6.76

Challenge: Suppose we examine the compound Cc1c(N(C)[C@H]2CCN(Cc3cccc(F)c3)C2)cc(F)c(S(=O)(=O)Nc2cscn2)c1F [Example 235, formate] ; what IC50 value has been reported?
Response given: 15.4

Challenge: Suppose we examine the compound C[C@H]1C[C@H](N(C)c2cc(F)c(S(=O)(=O)Nc3cscn3)cc2Cl)CN1Cc1ccccc1 [Example 231, formate] ; what IC50 value has been reported?
Response given: 15.1

Challenge: Suppose we examine the compound Cc1cc(CN2CC[C@H](N(C)c3cc(F)c(S(=O)(=O)Nc4cscn4)cc3Cl)C2)ccc1F [Example 211] ; what IC50 value has been reported?
Response given: 7.85

* * *

target: NaV1.5 (Homo sapiens (Human)); assay: Sodium Influx Assay (Flux), NaV1.5; details: read-out: Flux NaV1.5 IC50; Trex HEK293 cells, ANG2 dye; arithmetic mean
Structures can show the parent of a compound that is named as a salt.
test.readout: pIC50
Remember, pIC50 is on a log scale: it is -log10 of the molar concentration.

Illustrative cases are given below, each with its answer.
* O=S(=O)(Nc1cccc(F)n1)c1cc(Cl)c(OC2CCN(Cc3ccccc3)CC2)cc1F [Example 78, 2,2,2-trifluoroacetate] | 5.54
* Cc1cc(S(=O)(=O)Nc2cscn2)c(F)cc1N(C)[C@H]1CCN(Cc2cccc(F)c2F)C1 | 4.99

Challenge: What is its pIC50 for NaV1.5 (Homo sapiens (Human))? Entry: Cc1cc(S(=O)(=O)Nc2cscn2)c(F)cc1N(C)[C@H]1CCN(Cc2ccccc2F)C1
Response given: 4.84

Challenge: What is its pIC50 for NaV1.5 (Homo sapiens (Human))? Entry: Cc1cc(S(=O)(=O)Nc2cscn2)c(F)cc1N(C)[C@H]1CCN(Cc2cc3ccccn3n2)C1
Response given: 4.62

Challenge: What is its pIC50 for NaV1.5 (Homo sapiens (Human))? Entry: CC(C)(c1ccccc1)N1CCC(Oc2cc(F)c(S(=O)(=O)Nc3nccs3)cc2Cl)CC1 [Example 60, 2,2,2-trifluoroacetate]
Response given: 4.80

Challenge: What is its pIC50 for NaV1.5 (Homo sapiens (Human))? Entry: CN(c1cc(F)c(S(=O)(=O)Nc2nccs2)cc1Cl)[C@H]1CCN(Cc2ccccc2)C1 [Example 39, bis(trifluoroacetic acid) salt]
Response given: 4.88

Challenge: What is its pIC50 for NaV1.5 (Homo sapiens (Human))? Entry: C[C@H](c1ccccc1)N1CC[C@H](N(C)c2ccc(S(=O)(=O)Nc3cscn3)cc2Cl)C1 [Example 251, 2,2,2-trifluoroacetate]
Response given: 5.14

Challenge: What is its pIC50 for NaV1.5 (Homo sapiens (Human))? Entry: CN(c1cc(F)c(S(=O)(=O)Nc2cscn2)cc1Cl)[C@H]1CCN(Cc2cccc(Cl)c2F)C1
Response given: 5.10

Challenge: What is its pIC50 for NaV1.5 (Homo sapiens (Human))? Entry: Cc1c(OC2CCN(Cc3ccccc3)CC2)ccc(S(=O)(=O)Nc2cscn2)c1F [Example 299, hydrochloride]
Response given: 4.57

Challenge: What is its pIC50 for NaV1.5 (Homo sapiens (Human))? Entry: Cc1cc(S(=O)(=O)Nc2cscn2)c(F)cc1N[C@H]1CCN(Cc2ccccc2)C1 [Example 288, 2,2,2-trifluoroacetate]
Response given: 4.56

Challenge: What is its pIC50 for NaV1.5 (Homo sapiens (Human))? Entry: O=S(=O)(Nc1nccs1)c1ccc(OC2CN(Cc3ccccc3)C2)c(Cl)c1
Response given: 4.78

Challenge: What is its pIC50 for NaV1.5 (Homo sapiens (Human))? Entry: Cc1c(N(C)[C@H]2CCN(Cc3ccccc3)C2)ccc(S(=O)(=O)Nc2cscn2)c1F [Example 321, 2,2,2-trifluoroacetate]
Response given: 4.67
